Data credit: patent US20220259215A1

# SYSTEM_TESTED: H+/K+ATPase (Oryctolagus cuniculus, UniProt P27112)
# Construct: The stomach tissue of the rabbit was separated
# Sequence (P27112 whole entry): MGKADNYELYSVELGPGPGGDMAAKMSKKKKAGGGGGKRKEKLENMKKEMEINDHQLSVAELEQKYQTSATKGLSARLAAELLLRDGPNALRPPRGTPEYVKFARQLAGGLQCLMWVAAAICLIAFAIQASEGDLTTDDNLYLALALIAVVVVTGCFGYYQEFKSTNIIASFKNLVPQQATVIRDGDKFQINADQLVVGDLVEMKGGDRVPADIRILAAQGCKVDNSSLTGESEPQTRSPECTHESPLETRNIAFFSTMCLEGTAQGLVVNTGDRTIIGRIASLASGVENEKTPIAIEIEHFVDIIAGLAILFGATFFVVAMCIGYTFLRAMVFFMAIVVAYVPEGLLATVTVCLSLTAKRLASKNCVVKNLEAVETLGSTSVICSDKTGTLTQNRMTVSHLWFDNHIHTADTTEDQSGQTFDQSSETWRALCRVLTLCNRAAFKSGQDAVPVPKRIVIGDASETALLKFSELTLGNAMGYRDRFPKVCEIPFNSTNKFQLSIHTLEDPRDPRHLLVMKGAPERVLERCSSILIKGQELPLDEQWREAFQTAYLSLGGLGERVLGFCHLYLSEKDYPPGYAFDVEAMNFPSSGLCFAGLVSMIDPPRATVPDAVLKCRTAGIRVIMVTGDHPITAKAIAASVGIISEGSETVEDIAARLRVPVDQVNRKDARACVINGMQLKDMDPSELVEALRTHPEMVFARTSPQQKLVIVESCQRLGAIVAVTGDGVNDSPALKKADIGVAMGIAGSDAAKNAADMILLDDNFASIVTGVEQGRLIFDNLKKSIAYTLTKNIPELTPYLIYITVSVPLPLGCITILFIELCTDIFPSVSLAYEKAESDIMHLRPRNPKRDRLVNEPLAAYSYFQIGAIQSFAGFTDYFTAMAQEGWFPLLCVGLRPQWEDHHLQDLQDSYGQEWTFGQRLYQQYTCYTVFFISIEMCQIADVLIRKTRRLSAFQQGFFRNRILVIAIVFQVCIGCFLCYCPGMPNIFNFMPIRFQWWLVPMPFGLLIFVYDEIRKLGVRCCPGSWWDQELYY
# Sequence (P18597 whole entry partner): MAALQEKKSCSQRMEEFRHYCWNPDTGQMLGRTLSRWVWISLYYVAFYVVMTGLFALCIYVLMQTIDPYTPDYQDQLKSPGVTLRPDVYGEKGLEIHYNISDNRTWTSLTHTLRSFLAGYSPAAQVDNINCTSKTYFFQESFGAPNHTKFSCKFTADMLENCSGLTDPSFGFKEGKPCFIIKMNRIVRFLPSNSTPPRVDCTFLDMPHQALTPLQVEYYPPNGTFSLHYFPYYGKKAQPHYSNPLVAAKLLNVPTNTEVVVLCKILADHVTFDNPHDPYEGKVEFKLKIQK
# ASSAY_REMARKS: Determination of compounds' inhibition of H+/K+ATPase enzyme activity (malachite green, OD 620 nm)
# PARTICULARS: H+/K+ATPase extracted from rabbit stomach mucosa; 500 μM ATP, pH 6.5, 37° C.
ENDPOINT: IC50 (nM)

Consider the following illustrative entries.
SMILES_INPUT	SYSTEM_TESTED	READOUT_UNIT	IC50
CN1Cc2nn(Cc3cccc(Nc4cncc(Cl)n4)c3)c(-c3ccccc3F)c2C1	H+/K+ATPase (Oryctolagus cuniculus, UniProt P27112)	nM	325
CN1Cc2nn(Cc3cccc(Nc4cc[nH]c(=O)n4)c3)c(-c3ccccc3F)c2C1	H+/K+ATPase (Oryctolagus cuniculus, UniProt P27112)	nM	729
CN1Cc2nn(Cc3cccc(Nc4ccnc(Cl)n4)c3)c(-c3ccccc3F)c2C1	H+/K+ATPase (Oryctolagus cuniculus, UniProt P27112)	nM	966

[1] CNc1nccc(Nc2cccc(Cn3nc4c(c3-c3ccccc3F)CN(C)C4)c2)n1
[2] CN1Cc2nn(Cc3cccc(Nc4ccnc(N5CCOCC5)n4)c3)c(-c3ccccc3F)c2C1
[3] COc1ccc(Nc2cccc(Cn3nc4c(c3-c3ccccc3F)CN(C)C4)c2)c(Cl)n1
[4] Cc1ccc(Nc2cccc(Cn3nc4c(c3-c3ccccc3F)CN(C)C4)c2)c(Cl)n1
Please order the records by their reported IC50, lowest number first. Write the labels, ordered according to the request.
1, 3, 4, 2
